Sourced from ChEMBL document CHEMBL6153083

- RUN_DESCRIPTION: Antiproliferative activity against human L02 cells incubated for 72 hrs
- Format: toxicity, cell-based
Reported IC50 at 72 h values for the following compounds.
QUANTITY: IC50 at 72 h

COMPOUND	RESULT
CCCC1CCN(Cc2cc3c(cc2-c2cc4ccc5c(c4cn2)OCO5)OCO3)CC1	84.2 µM
CC1(O)CCN(Cc2cc3c(cc2-c2cc4ccc5c(c4cn2)OCO5)OCO3)C1 (stereo not drawn)	> 100 µM
CC(C)C1CCCCCN1Cc1cc2c(cc1-c1cc3ccc4c(c3cn1)OCO4)OCO2 (stereo not drawn)	20.5 µM
FC1CN(Cc2cc3c(cc2-c2cc4ccc5c(c4cn2)OCO5)OCO3)C1	59 µM
CC(C)C1CCN(Cc2cc3c(cc2-c2cc4ccc5c(c4cn2)OCO5)OCO3)CC1	18.2 µM
CC1(C)CCN(Cc2cc3c(cc2-c2cc4ccc5c(c4cn2)OCO5)OCO3)CC1	> 100 µM
c1c(CN2CCCCCCCC2)c(-c2cc3ccc4c(c3cn2)OCO4)cc2c1OCO2	24.8 µM
c1c(CN2CC3CC3C2)c(-c2cc3ccc4c(c3cn2)OCO4)cc2c1OCO2 (stereo not drawn)	26.8 µM
CCC1CCCCN1Cc1cc2c(cc1-c1cc3ccc4c(c3cn1)OCO4)OCO2 (stereo not drawn)	22.6 µM
OC1CCCN(Cc2cc3c(cc2-c2cc4ccc5c(c4cn2)OCO5)OCO3)CC1 (stereo not drawn)	37.4 µM
CC(C)(C)C(=O)C1CCN(Cc2cc3c(cc2-c2cc4ccc5c(c4cn2)OCO5)OCO3)CC1	> 100 µM
c1c(CN2CCCCCC2)c(-c2cc3ccc4c(c3cn2)OCO4)cc2c1OCO2	14.4 µM
CC1CCCCN1Cc1cc2c(cc1-c1cc3ccc4c(c3cn1)OCO4)OCO2 (stereo not drawn)	42.4 µM
FC1(F)CCCN(Cc2cc3c(cc2-c2cc4ccc5c(c4cn2)OCO5)OCO3)CC1	36.6 µM
ClC1CCN(Cc2cc3c(cc2-c2cc4ccc5c(c4cn2)OCO5)OCO3)CC1	> 100 µM
OCC1CCN(Cc2cc3c(cc2-c2cc4ccc5c(c4cn2)OCO5)OCO3)C1 (stereo not drawn)	43.2 µM
CC1(C)CCN(Cc2cc3c(cc2-c2cc4ccc5c(c4cn2)OCO5)OCO3)C1	24.8 µM
CC1CCN1Cc1cc2c(cc1-c1cc3ccc4c(c3cn1)OCO4)OCO2 (stereo not drawn)	33.8 µM
CN1CCCN(Cc2cc3c(cc2-c2cc4ccc5c(c4cn2)OCO5)OCO3)CC1	> 100 µM
c1c(CN2CC3CCC(C2)O3)c(-c2cc3ccc4c(c3cn2)OCO4)cc2c1OCO2	> 100 µM
OCC1CN(Cc2cc3c(cc2-c2cc4ccc5c(c4cn2)OCO5)OCO3)C1	> 100 µM
COCC1CCN(Cc2cc3c(cc2-c2cc4ccc5c(c4cn2)OCO5)OCO3)CC1	48.4 µM
CC(C)(O)C1CCN(Cc2cc3c(cc2-c2cc4ccc5c(c4cn2)OCO5)OCO3)CC1	38.2 µM
